- Assay method text: chemical genetic growth profiling, strain panel (AID 1159580);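 note: tested at 20 µM; growth read once vehicle control cultures reached saturation at 30 °C; lower values mean less growth of the strain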
- Study conditions: S. cerevisiae deletion strains, growth OD, locus YHR030C, strain SLT2
Hit rate of the full screen: of about 5,500 compounds, about 2,000 (36%) were called active. Inconclusive results (about 18%) are left out. Cut-off read from the data, not from the text of the source: active = normalized growth mostly below about 0.91 (no sharp cut-off); inconclusive = no clear call, values can overlap the other calls; inactive = mostly above about 0.92. The list shows a part of the results.
Choose one outcome from this list and give only that: active, inactive

Query: recorded result category for CC(=O)Oc1c(Cl)c(C)c2c(c1Cl)OC(=O)c1c(C)c(Cl)c(OC(C)=O)c(Cl)c1O2 in this test
inactive

Query: recorded result category for Cc1onc(-c2c(F)cccc2Cl)c1/C(N)=N\OC(=O)c1ccc(C(C)(C)C)cc1 in this test
active

Query: recorded result category for Cc1cc(=O)n(-c2ccc([N+](=O)[O-])cc2)[nH]1 in this test
active

Query: recorded result category for COc1c(Br)cc(/C(N)=N\OC(=O)c2c(-c3c(Cl)cccc3Cl)noc2C)cc1Br in this test
inactive

Query: recorded result category for CC(C)CC1NC(=O)CNC1=O (configuration not stated) in this test
inactive

Query: recorded result category for NC(N)=NC(N)=Nc1ccc2c(c1)OCCO2 in this test
inactive

Query: recorded result category for Cc1ccc(Sc2ccc([N+](=O)[O-])cc2/C=C2\SC(=S)NC2=O)cc1 in this test
active

Query: recorded result category for COC(=O)c1c(C)c2c(c(C)c1OC)OC(=O)c1c(C)c(Cl)c(OC)c(Cl)c1O2 in this test
inactive

Query: recorded result category for NC(=S)CSc1ccccc1 in this test
active

Query: recorded result category for Cc1ccc2c(c1)C1(C)CCCC(C)(C(=O)O)C1CC2 (configuration not stated) in this test
inactive

Query: recorded result category for CSc1sc(C#N)c2c1C(O)CCC2 (configuration not stated) in this test
inactive

Query: recorded result category for CC(=O)Nc1ccc(S(=O)(=O)Nc2onc(C)c2C)cc1 in this test
inactive
